assay: Solubility of the compound in FaSSIF solution at 100 uM after overnight incubation by UPLC/DAD analysis; format: physicochemical
We use 40 µM as the dividing line for solubility at 100 µM: on or above the line is MET, below is NOT MET.

> print(dat)
                               smiles.input  cat
1  N#C[C@H]1CCOC[C@@H]1n1cc(C(N)=O)c(Nc2ccc(F)cc2)n1  MET
2  N#C[C@H]1CCOC[C@@H]1n1cc(C(N)=O)c(Nc2ccc(-n3ccnn3)cc2)n1  MET
3  N#Cc1ccc(Nc2nn([C@H]3COCC[C@@H]3C#N)cc2C(N)=O)cc1  MET
4  N#C[C@H]1CCOC[C@@H]1n1cc(C(N)=O)c(Nc2ccnc(F)c2)n1  MET
5  Cn1cc(-c2ccc(Nc3nn([C@H]4COCC[C@@H]4C#N)cc3C(N)=O)cc2)cn1  MET

Given the entry N#C[C@H]1CCOC[C@@H]1n1cc(C(N)=O)c(Nc2ccccc2)n1 , answer whether its solubility at 100 µM meets or surpasses 40 µM.
NOT MET

----------
This section lists IC50 readings for Tyrosine-protein kinase JAK1 (Homo sapiens, UniProt P23458).
Give bare numbers, in µM.

Guide cases for IC50, answers given:
> print(dat)
                               smiles.input  reported.value
1  N#Cc1ccc(Nc2nn([C@H]3COCC[C@@H]3C#N)cc2C(N)=O)cc1C#N           0.077
2  CN(C)[C@H]1CC[C@H](n2cc(C(N)=O)c(Nc3ccc(Cl)cc3)n2)[C@@H](C#N)C1           0.064
3  COc1cc(Nc2nn([C@H]3COCC[C@@H]3C#N)cc2C(N)=O)ccc1C#N           0.019

Hi there! I need IC50 for each item below, if you can.
1. N#C[C@H]1CCOC[C@@H]1n1cc(C(N)=O)c(Nc2ccc(OC(F)F)cc2)n1
2. CN(C)c1cc(Nc2nn([C@H]3COCC[C@@H]3C#N)cc2C(N)=O)cc(F)n1
3. N#C[C@H]1CCOC[C@@H]1n1cc(C(N)=O)c(Nc2ccccc2)n1

1. 0.005
2. 0.028
3. 0.033

Hi! Can you tell me IC50 for each of these molecules?
1. N#C[C@H]1CCOC[C@@H]1n1cc(C(N)=O)c(Nc2cc(F)c3nccc(Cl)c3c2)n1
2. N#Cc1ccc(Nc2nn([C@H]3COCC[C@@H]3C#N)cc2C(N)=O)cc1Cl

0.014
0.026

Item under review: N#Cc1ccc(Nc2nn([C@H]3COCC[C@@H]3C#N)cc2C(N)=O)cc1 . Reported IC50?
0.013

----------
experiment: Lipophilicity, log D of the compound at 100 uM at pH 7 by HPLC/DAD analysis; type: physicochemical; details: buffer
API: label(entry) gives Criterion met if the entry's logD at 100 µM is strictly smaller than 2; on equality or larger values it gives Criterion not met.

Consider the following illustrative entries.
> print(dat)
                               smiles.input                cat
1  N#C[C@H]1CCOC[C@@H]1n1cc(C(N)=O)c(Nc2cc(F)c3nccc(Cl)c3c2)n1      Criterion met
2  N#C[C@H]1CCOC[C@@H]1n1cc(C(N)=O)c(Nc2ccc(Cl)cc2)n1  Criterion not met
3  Cn1cc(-c2ccc(Nc3nn([C@H]4COCC[C@@H]4C#N)cc3C(N)=O)cc2)cn1      Criterion met

# next compound below
Is logD at 100 µM of CN(C)[C@H]1CC[C@H](n2cc(C(N)=O)c(Nc3ccc(Cl)cc3)n2)[C@@H](C#N)C1 strictly below 2?
Criterion not met

----------
tested on: Rattus norvegicus; assay: Unbound clearance in rat at 0.5 mg/kg, iv or 1 mg/kg, po; format: ADME, organism-based; conditions: in vivo
OBSERVATION_TYPE: CL free (L/h/kg)
Answers are plain numbers, in L/h/kg.

> print(dat)
                               smiles.input  target.under.test  unit.name  reported.value
1  N#C[C@H]1CCOC[C@@H]1n1cc(C(N)=O)c(Nc2ccccc2)n1  Rattus norvegicus     L/h/kg             6.6
2  COc1cc(Nc2nn([C@H]3COCC[C@@H]3C#N)cc2C(N)=O)ccc1Cl  Rattus norvegicus     L/h/kg              21
3  N#C[C@H]1CCCC[C@@H]1n1cc(C(N)=O)c(Nc2ccccc2)n1  Rattus norvegicus     L/h/kg             726

Enter reported CL free observed with Rattus norvegicus for N#Cc1ccc(Nc2nn([C@H]3COCC[C@@H]3C#N)cc2C(N)=O)cc1
6

----------
Entries below carry reported pIC50 on Tyrosine-protein kinase JAK3 (Homo sapiens).
Sequence (P52333 whole entry): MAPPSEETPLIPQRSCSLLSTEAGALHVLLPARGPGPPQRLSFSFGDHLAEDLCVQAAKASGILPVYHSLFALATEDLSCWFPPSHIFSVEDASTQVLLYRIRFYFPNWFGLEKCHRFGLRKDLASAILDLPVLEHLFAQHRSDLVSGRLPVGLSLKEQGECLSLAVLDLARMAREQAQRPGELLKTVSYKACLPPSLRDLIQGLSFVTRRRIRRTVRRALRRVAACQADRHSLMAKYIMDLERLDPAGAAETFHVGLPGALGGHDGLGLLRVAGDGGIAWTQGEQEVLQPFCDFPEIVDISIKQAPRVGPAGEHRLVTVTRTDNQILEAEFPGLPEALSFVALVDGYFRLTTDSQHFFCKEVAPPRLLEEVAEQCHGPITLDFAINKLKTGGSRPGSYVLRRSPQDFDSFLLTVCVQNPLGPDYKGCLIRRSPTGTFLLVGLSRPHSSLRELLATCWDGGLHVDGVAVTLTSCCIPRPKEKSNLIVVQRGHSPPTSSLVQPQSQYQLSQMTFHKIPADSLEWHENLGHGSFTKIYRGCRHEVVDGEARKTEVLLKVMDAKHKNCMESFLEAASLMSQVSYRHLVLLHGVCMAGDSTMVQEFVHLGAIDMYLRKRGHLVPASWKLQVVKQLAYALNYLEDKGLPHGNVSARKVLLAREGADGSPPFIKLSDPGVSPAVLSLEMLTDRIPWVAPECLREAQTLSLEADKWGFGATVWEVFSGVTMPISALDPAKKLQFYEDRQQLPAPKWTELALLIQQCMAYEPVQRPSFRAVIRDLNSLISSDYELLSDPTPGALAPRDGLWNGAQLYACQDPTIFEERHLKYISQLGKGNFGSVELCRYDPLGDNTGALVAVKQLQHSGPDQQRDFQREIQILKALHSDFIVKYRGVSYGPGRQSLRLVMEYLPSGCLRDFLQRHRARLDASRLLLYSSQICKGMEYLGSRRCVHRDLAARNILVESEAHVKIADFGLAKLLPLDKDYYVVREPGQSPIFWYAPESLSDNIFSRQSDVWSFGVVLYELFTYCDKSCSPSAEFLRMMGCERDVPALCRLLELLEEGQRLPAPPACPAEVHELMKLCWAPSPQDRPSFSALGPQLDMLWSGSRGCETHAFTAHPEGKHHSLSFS
One number for each entry, as −log10 of the molar value.

Could you report pIC50 for every entry in the following list?
1. N#C[C@H]1CCOC[C@@H]1n1cc(C(N)=O)c(Nc2ccc(F)cc2)n1
2. Cn1cc(-c2ccc(Nc3nn([C@H]4COCC[C@@H]4C#N)cc3C(N)=O)cc2)cn1

6.52
7.04

Need pIC50, item COc1cc(Nc2nn([C@H]3COCC[C@@H]3C#N)cc2C(N)=O)ccc1Cl
6.40

----------
Could you please report measured Vd for the items listed next?
assay: Volume of distribution at steady state in dog at 0.25 mg/kg, iv or 0.5 mg/kg, po; type: ADME, organism-based, Canis lupus familiaris; settings: in vivo, read-out: Vdss
One number for each entry, in L/kg.

The cases that follow already have their Vd on record.
> print(dat)
                               smiles.input  reported.value
1  N#Cc1ccc(Nc2nn([C@H]3COCC[C@@H]3C#N)cc2C(N)=O)cc1             2.7
2  CN(C)[C@H]1CC[C@H](n2cc(C(N)=O)c(Nc3ccc(Cl)cc3)n2)[C@@H](C#N)C1               8

Okay, now this molecule:
// returns reported Vd for input COc1cc(Nc2nn([C@H]3COCC[C@@H]3C#N)cc2C(N)=O)ccc1Cl
1.2

----------
test: Intrinsic clearance in rat hepatocytes after 120 mins by LC-MS/MS analysis; assay type: ADME, cell-based, Hepatocyte; details: read-out: CLH
Exercise: state measured CLint scaled for each of the compounds provided.

> print(dat)
                               smiles.input  reported.value
1  N#C[C@H]1CCOC[C@@H]1n1cc(C(N)=O)c(Nc2cc(F)c3nccc(Cl)c3c2)n1    52 mL/min/kg

Count: 2. Required value per item: CLint scaled.
1. CN([C@H]1CC[C@H](n2cc(C(N)=O)c(Nc3ccc(Cl)cc3)n2)[C@@H](C#N)C1)C1(C)COC1
2. N#C[C@H]1CCOC[C@@H]1n1cc(C(N)=O)c(Nc2ccnc(F)c2)n1

1: 80 mL/min/kg; 2: 5 mL/min/kg

Required: CLint scaled, one value per compound below.
1. CN(C)c1cc(Nc2nn([C@H]3COCC[C@@H]3C#N)cc2C(N)=O)cc(F)n1
2. N#C[C@H]1CCOC[C@@H]1n1cc(C(N)=O)c(Nc2ccc(C3CC3)cc2)n1

1. 9 mL/min/kg
2. 262 mL/min/kg

----------
Provide the recorded log10 of CLint scaled for the entries that follow.
experiment: Intrinsic clearance in human hepatocytes after 120 mins by LC-MS/MS analysis; format: ADME, cell-based, Hepatocyte; conditions: read-out: CLH
In our notation, the value equals log10 of CLint scaled in mL/min/kg.

Below are some compounds; for each one, tell me its log10 of CLint scaled.
1. N#C[C@H]1CCOC[C@@H]1n1cc(C(N)=O)c(Nc2ccc(Cl)cc2)n1
2. N#C[C@H]1CCOC[C@@H]1n1cc(C(N)=O)c(Nc2ccc(-n3ccnn3)cc2)n1
3. N#C[C@H]1CCOC[C@@H]1n1cc(C(N)=O)c(Nc2ccnc(F)c2)n1

[1.93, 0.40, 0.18]

For each entry beneath this line, provide reported log10 of CLint scaled.
1. CN(C)c1cc(Nc2nn([C@H]3COCC[C@@H]3C#N)cc2C(N)=O)cc(F)n1
2. N#C[C@H]1CCCC[C@@H]1n1cc(C(N)=O)c(Nc2ccccc2)n1
3. C[C@@H]1NS(=O)(=O)c2ccc(Nc3nn([C@H]4COCC[C@@H]4C#N)cc3C(N)=O)cc21

[0.60, 1.40, 1.79]

Record log10 of CLint scaled for all entries; do not skip any.
1. CN(C)[C@H]1CC[C@H](n2cc(C(N)=O)c(Nc3ccc(Cl)cc3)n2)[C@@H](C#N)C1
2. COc1ccnc2c(F)cc(Nc3nn([C@H]4COCC[C@@H]4C#N)cc3C(N)=O)cc12
3. COc1cc(Nc2nn([C@H]3COCC[C@@H]3C#N)cc2C(N)=O)ccc1C#N
4. N#C[C@H]1CCOC[C@@H]1n1cc(C(N)=O)c(Nc2ccc(OC(F)F)cc2)n1
5. CN([C@H]1CC[C@H](n2cc(C(N)=O)c(Nc3ccc(Cl)cc3)n2)[C@@H](C#N)C1)C1(C)COC1

1: 1.41; 2: 1.18; 3: 1.38; 4: 1.45; 5: 1.51

Fill in log10 of CLint scaled for each of the 5 compounds listed.
1. N#C[C@H]1CCOC[C@@H]1n1cc(C(N)=O)c(Nc2ccccc2)n1
2. N#C[C@H]1CCOC[C@@H]1n1cc(C(N)=O)c(Nc2ccc(C3CC3)cc2)n1
3. COc1cc(Nc2nn([C@H]3COCC[C@@H]3C#N)cc2C(N)=O)cc(F)n1
4. COc1cc(Nc2nn([C@H]3COCC[C@@H]3C#N)cc2C(N)=O)ccc1Cl
5. N#C[C@H]1CCOC[C@@H]1n1cc(C(N)=O)c(Nc2cc(F)c3nccc(Cl)c3c2)n1

1. 0.78
2. 1.61
3. 0.30
4. 0.78
5. 1.40

# log10 of CLint scaled lookup, item N#Cc1ccc(Nc2nn([C@H]3COCC[C@@H]3C#N)cc2C(N)=O)cc1
0.48
